- Test system: M. avium ATCC 700898 isolate 64-4A
- experimental-details: MIC, EBO selected isolate
- Assay type: cell-based
- condition-context: Mycobacterium avium
assay-readout: MIC
Please provide the amount together with its unit, number first.

Take a look at these entries with their results.
[[record]]
compound = "CC[C@@H](CO)NCCN[C@@H](CC)CO [EMB, Ethambutol]"
assay_readout = "MIC"
measured_value = "8 µg/mL"

[[record]]
compound = "COc1nc2ccc(Br)cc2cc1[C@@H](c1ccccc1)[C@@](O)(CCN(C)C)c1cccc2ccccc12 [BDQ, Bedaquiline]"
assay_readout = "MIC"
measured_value = "0.06 µg/mL"


QUERY: Consider the compound CC[C@H]1OC(=O)[C@H](C)[C@@H](O[C@H]2C[C@@](C)(OC)[C@@H](O)[C@H](C)O2)[C@H](C)[C@@H](O[C@@H]2O[C@H](C)C[C@H](N(C)C)[C@H]2O)[C@](C)(OC)C[C@@H](C)C(=O)[C@H](C)[C@@H](O)[C@]1(C)O [CLR, Clarithromycin] and give its measured MIC.
RESULT: 2 µg/mL

----------
- System: M. avium ATCC 700898 isolate 64-4A
- experimental-details: MIC, EBO selected isolate
- Format: cell-based
- condition-context: Mycobacterium avium
assay-readout: MIC (µg/mL)
Numbers only, in µg/mL.

[[record]]
smiles = "CC(C)/N=c1\\cc2n(-c3ccc(Cl)cc3)c3ccccc3nc-2cc1Nc1ccc(Cl)cc1"
assay_readout = "MIC"
measured_value = 0.5


Then there is this compound:
QUERY: Fill blank: measured MIC of the compound NCC[C@H](O)C(=O)N[C@@H]1C[C@H](N)[C@@H](O[C@H]2O[C@H](CN)[C@@H](O)[C@H](O)[C@H]2O)[C@H](O)[C@H]1O[C@H]1O[C@H](CO)[C@@H](O)[C@H](N)[C@H]1O is ____.
RESULT: 32

----------
Assignment: determine reported log10 of MIC for the given compounds.
- Tested on: M. avium ATCC 700898 isolate 32-5A
- experimental-details: MIC, EBO selected isolate
- Format: cell-based
- condition-context: Mycobacterium avium
Answers are given as log10 of MIC in µg/mL.

[[record]]
smiles = "NCC[C@H](O)C(=O)N[C@@H]1C[C@H](N)[C@@H](O[C@H]2O[C@H](CN)[C@@H](O)[C@H](O)[C@H]2O)[C@H](O)[C@H]1O[C@H]1O[C@H](CO)[C@@H](O)[C@H](N)[C@H]1O"
target_entity = "M. avium ATCC 700898 isolate 32-5A"
measured_value = 1.51

[[record]]
smiles = "CC[C@@H](CO)NCCN[C@@H](CC)CO"
target_entity = "M. avium ATCC 700898 isolate 32-5A"
measured_value = 0.60

[[record]]
smiles = "COc1nc2ccc(Br)cc2cc1[C@@H](c1ccccc1)[C@@](O)(CCN(C)C)c1cccc2ccccc12"
target_entity = "M. avium ATCC 700898 isolate 32-5A"
measured_value = -1.52

[[record]]
smiles = "CC(C)/N=c1\\cc2n(-c3ccc(Cl)cc3)c3ccccc3nc-2cc1Nc1ccc(Cl)cc1"
target_entity = "M. avium ATCC 700898 isolate 32-5A"
measured_value = -0.30

[[record]]
smiles = "CO[C@H]1/C=C/O[C@@]2(C)Oc3c(C)c(O)c4c(c3C2=O)C2=NC3(CCN(CC(C)C)CC3)NC2=C(NC(=O)/C(C)=C\\C=C\\[C@H](C)[C@H](O)[C@@H](C)[C@@H](O)[C@@H](C)[C@H](OC(C)=O)[C@@H]1C)C4=O"
target_entity = "M. avium ATCC 700898 isolate 32-5A"
measured_value = -1.22


We now examine a further compound.
QUERY: Which log10 of MIC is reported for this compound? CC[C@H]1OC(=O)[C@H](C)[C@@H](O[C@H]2C[C@@](C)(OC)[C@@H](O)[C@H](C)O2)[C@H](C)[C@@H](O[C@@H]2O[C@H](C)C[C@H](N(C)C)[C@H]2O)[C@](C)(OC)C[C@@H](C)C(=O)[C@H](C)[C@@H](O)[C@]1(C)O
RESULT: 0.00

----------
For each of the compounds below, state its MIC.
- Test system: M. abscessus ATCC 19977
- experimental-details: MIC, broth microdilution
- Format: cell-based
- condition-context: Mycobacteroides abscessus, ATCC19977, read-out: In Vitro Activity (MIC)
Numbers only, in µg/mL.

# annotated cases, reported MIC shown
[[record]]
compound = "CC[C@H]1OC(=O)[C@H](C)[C@@H](O[C@H]2C[C@@](C)(OC)[C@@H](O)[C@H](C)O2)[C@H](C)[C@@H](O[C@@H]2O[C@H](C)C[C@H](N(C)C)[C@H]2O)[C@](C)(OC)C[C@@H](C)C(=O)[C@H](C)[C@@H](O)[C@]1(C)O [CLR, Clarithromycin]"
units_of_measure = "µg/mL"
measured_value = 16

[[record]]
compound = "COc1nc2ccc(Br)cc2cc1[C@@H](c1ccccc1)[C@@](O)(CCN(C)C)c1cccc2ccccc12 [BDQ, Bedaquiline]"
units_of_measure = "µg/mL"
measured_value = 0.5

[[record]]
compound = "NCC[C@H](O)C(=O)N[C@@H]1C[C@H](N)[C@@H](O[C@H]2O[C@H](CN)[C@@H](O)[C@H](O)[C@H]2O)[C@H](O)[C@H]1O[C@H]1O[C@H](CO)[C@@H](O)[C@H](N)[C@H]1O [AMK, Amikacin]"
units_of_measure = "µg/mL"
measured_value = 64

[[record]]
compound = "CC[C@@H](CO)NCCN[C@@H](CC)CO [EMB, Ethambutol]"
units_of_measure = "µg/mL"
measured_value = 32


Below: the item to evaluate.
QUERY: What measured MIC goes with CO[C@H]1/C=C/O[C@@]2(C)Oc3c(C)c(O)c4c(c3C2=O)C2=NC3(CCN(CC(C)C)CC3)NC2=C(NC(=O)/C(C)=C\C=C\[C@H](C)[C@H](O)[C@@H](C)[C@@H](O)[C@@H](C)[C@H](OC(C)=O)[C@@H]1C)C4=O [RFB, Rifabutin] ?
RESULT: 32

----------
- Tested on: M. avium ATCC 700898
For each of the compounds below, state its MIC.
Answers are plain numbers, in µg/mL.

Answered examples (3):
[[record]]
compound = "CO[C@H]1/C=C/O[C@@]2(C)Oc3c(C)c(O)c4c(c3C2=O)C2=NC3(CCN(CC(C)C)CC3)NC2=C(NC(=O)/C(C)=C\\C=C\\[C@H](C)[C@H](O)[C@@H](C)[C@@H](O)[C@@H](C)[C@H](OC(C)=O)[C@@H]1C)C4=O [RFB, Rifabutin]"
assay_readout = "MIC"
units_of_measure = "µg/mL"
measured_value = 0.25

[[record]]
compound = "NCC[C@H](O)C(=O)N[C@@H]1C[C@H](N)[C@@H](O[C@H]2O[C@H](CN)[C@@H](O)[C@H](O)[C@H]2O)[C@H](O)[C@H]1O[C@H]1O[C@H](CO)[C@@H](O)[C@H](N)[C@H]1O [AMK, Amikacin]"
assay_readout = "MIC"
units_of_measure = "µg/mL"
measured_value = 32

[[record]]
compound = "CC[C@@H](CO)NCCN[C@@H](CC)CO [EMB, Ethambutol]"
assay_readout = "MIC"
units_of_measure = "µg/mL"
measured_value = 8


// next item, MIC requested
QUERY: If you can, please state the reported MIC value of CC[C@H]1OC(=O)[C@H](C)[C@@H](O[C@H]2C[C@@](C)(OC)[C@@H](O)[C@H](C)O2)[C@H](C)[C@@H](O[C@@H]2O[C@H](C)C[C@H](N(C)C)[C@H]2O)[C@](C)(OC)C[C@@H](C)C(=O)[C@H](C)[C@@H](O)[C@]1(C)O [CLR, Clarithromycin] .
RESULT: 4

----------
- Tested on: M. avium ATCC 700898 isolate 16-3A
- experimental-details: MIC, EBO selected isolate
- Format: cell-based
- condition-context: Mycobacterium avium
assay-readout: log10 of MIC (log10 of the value in µg/mL)
Please note: log10 values; quantity MIC; unit µg/mL.

# annotated cases, reported log10 of MIC shown
[[record]]
smiles = "CC[C@H]1OC(=O)[C@H](C)[C@@H](O[C@H]2C[C@@](C)(OC)[C@@H](O)[C@H](C)O2)[C@H](C)[C@@H](O[C@@H]2O[C@H](C)C[C@H](N(C)C)[C@H]2O)[C@](C)(OC)C[C@@H](C)C(=O)[C@H](C)[C@@H](O)[C@]1(C)O"
target_entity = "M. avium ATCC 700898 isolate 16-3A"
assay_readout = "log10 of MIC"
measured_value = -0.30

[[record]]
smiles = "CC(C)/N=c1\\cc2n(-c3ccc(Cl)cc3)c3ccccc3nc-2cc1Nc1ccc(Cl)cc1"
target_entity = "M. avium ATCC 700898 isolate 16-3A"
assay_readout = "log10 of MIC"
measured_value = -0.60

[[record]]
smiles = "CC[C@@H](CO)NCCN[C@@H](CC)CO"
target_entity = "M. avium ATCC 700898 isolate 16-3A"
assay_readout = "log10 of MIC"
measured_value = 0.60


# batch size: 2; output log10 of MIC per entry
1. COc1nc2ccc(Br)cc2cc1[C@@H](c1ccccc1)[C@@](O)(CCN(C)C)c1cccc2ccccc12
2. NCC[C@H](O)C(=O)N[C@@H]1C[C@H](N)[C@@H](O[C@H]2O[C@H](CN)[C@@H](O)[C@H](O)[C@H]2O)[C@H](O)[C@H]1O[C@H]1O[C@H](CO)[C@@H](O)[C@H](N)[C@H]1O

RESULT:
1: -1.22; 2: 1.51

QUERY: Param item = CO[C@H]1/C=C/O[C@@]2(C)Oc3c(C)c(O)c4c(c3C2=O)C2=NC3(CCN(CC(C)C)CC3)NC2=C(NC(=O)/C(C)=C\C=C\[C@H](C)[C@H](O)[C@@H](C)[C@@H](O)[C@@H](C)[C@H](OC(C)=O)[C@@H]1C)C4=O ; retrieve measured log10 of MIC.
RESULT: -1.22
